Please respond with reported TGI for every item in the list.
# Test system: DLD-1 colon
# assay_comment: NCI tumour cell line growth inhibition, 48 h

*Q* State its TGI on DLD-1 colon: "O=C(NC12CC3CC(CC(C3)C1)C2)C(=O)c1c[nH]c2ccc(Br)cc12"
*A* 89 µM

*Q* Another: "O=c1nc(NC(c2ccccc2)(c2ccccc2)c2ccccc2)ccn1CCCl"
*A* > 100 µM

*Q* Another: "N=c1n(CC(=O)NC23CC4CC(CC(C4)C2)C3)c2ccccc2n1CC(=O)NC12CC3CC(CC(C3)C1)C2"
*A* 3.5 µM

*Q* Another: "Cc1c(OCCCOc2ccc3c(=O)cc(-c4ccccc4)oc3c2C)ccc2c(=O)cc(-c3ccccc3)oc12"
*A* > 100 µM

*Q* Another: "Cc1cc2c(c3nocc13)C(=O)c1ccccc1C2=O"
*A* > 100 µM

*Q* Another: COc1ccc(C2S/C(=C\c3cccc(OC)c3)C(=O)N2NC(=O)Cc2ccccc2)cc1 (stereo not given)
*A* > 100 µM

*Q* Another: "NCCOCn1cc(Cc2cccc(OCc3ccccc3)c2)c(=O)[nH]c1=O"
*A* > 100 µM

*Q* Another: "Brc1c2nc3ccccc3nc2n2ccc3ccccc3c12"
*A* > 100 µM

*Q* Another: "S=c1nc(C(c2ccccc2)c2ccccc2)[nH][nH]1"
*A* > 100 µM

*Q* Another: "COc1cc(O)c(C(=O)CC(C)=O)c(OC)c1"
*A* > 100 µM

====

Please respond with reported TGI for every item in the list.
# System: SF-268 CNS
# assay_comment: NCI tumour cell line growth inhibition, 48 h
Where a SMILES comes first, the peptide text is derived from it. The star is where a group is joined. Boc = CC(C)(C)OC(=O)*

*Q* State its TGI on SF-268 CNS: "O=C(CNc1nccs1)Nn1cnc2ccc(S(=O)(=O)Nc3nccs3)cc2c1=O"
*A* > 100 µM

*Q* Another: "COc1cc(N)c2[nH]c3c(C)ccc(C)c3c2c1"
*A* > 100 µM

*Q* Another: "N#CNC(=NCc1ccccc1)NCCc1c[nH]c2ccccc12"
*A* > 100 µM

*Q* Another: "CC(=O)NNC(=S)/N=C\c1c(O)c2ccccc2oc1=O"
*A* > 100 µM

*Q* Another: "CC(C)(C)c1ccc(O)c(C(c2ccc([N+](=O)[O-])cc2)c2cc(C(C)(C)C)ccc2O)c1"
*A* 3.16 µM

*Q* Another: CSCCC(NC(=O)C(CC(C)C)NC(=O)C1CCCN1C(=O)C(Cc1ccccc1)NC(=O)C(Cc1ccccc1)NC(=O)C(CCC(=O)O)NC(=O)OC(C)(C)C)C(N)=O (configuration not stated) (Boc-EFFPLM-NH2; configuration not given here)
*A* > 100 µM

*Q* Another: CC(N)Cc1ccc(Cl)cc1 (configuration not stated)
*A* > 100 µM

*Q* Another: "COc1cc(OCc2nc3cc(C(F)(F)F)ccc3nc2-c2ccccc2)cc(OC)c1OC"
*A* > 100 µM

*Q* Another: O=C(OCC1CCCN2CCCCC12)c1cccnc1 (configuration not stated)
*A* > 100 µM

*Q* Another: "C=CCNc1nc(O)c(/C=C2\C=Nc3ncccc32)s1"
*A* 6.92 µM

*Q* Another: "CCOc1cc(C(=O)O)c2c(ccc3ccc(OC)c(OC)c32)c1OC"
*A* > 100 µM

*Q* Another: "c1ccc2cc(Cn3cc[n+](Cc4ccc5ccccc5c4)c3)ccc2c1"
*A* 11.1 µM

*Q* Another: "Cc1ccc(S(=O)(=O)NC(=O)NCCc2ccc(O)c(O)c2)cc1"
*A* > 100 µM

*Q* Another: "COc1cc2c3c(n(CCCCNC(=O)OC(C)(C)C)c(=O)c2cc1OC)-c1cc2c(cc1C3=O)OCO2"
*A* > 100 µM

*Q* Another: CC(CN1CC(=O)NC(=O)C1)N1CC(=O)NC(=O)C1 (configuration not stated)
*A* > 750 µM

*Q* Another: O=C1C(C(c2ccc([N+](=O)[O-])cc2)N2CCOCC2)=C(O)C(c2ccccc2)N1c1ccccc1 (configuration not stated)
*A* > 10 µM

*Q* Another: "C/C=C/c1cc2c(c(=O)o1)C(=O)[C@@H](O)[C@H](C)O2"
*A* 30 µM

====

Please respond with reported TGI for every item in the list.
# System: MOLT-4 leukemia
# assay_comment: NCI tumour cell line growth inhibition, 48 h

*Q* // returns reported TGI for input CC(C)(C)c1cc(C(=O)C2Cc3ccccc3C(=O)O2)cc(C(C)(C)C)c1O (stereo not drawn)
*A* > 100 µM

*Q* Another: "O=C1OCC(c2ccc(O)cc2)=C1c1cc(O)c(O)c(O)c1"
*A* > 100 µM

*Q* Another: "Cc1nc(N)sc1C(=O)Nc1ncn[nH]1"
*A* > 100 µM

====

Please respond with reported TGI for every item in the list.
# Tested on: MOLT-4 leukemia
# assay_comment: NCI tumour cell line growth inhibition, 48 h

*Q* // returns reported TGI for input Nc1ncn(C2OC(COP(=O)(O)O)C(O)C2O)c(=O)n1 (configuration not stated)
*A* > 59.2 µM

*Q* Another: "c1ccc2[nH]c3c(N=NC4=NCCN4)c4ccccc4c-3nc2c1"
*A* > 100 µM

*Q* Another: "COc1cccc(OC(=O)c2ccc(C(F)(F)F)nc2Nc2c(C)cccc2Cl)c1"
*A* > 100 µM

*Q* Another: "CCCc1n[nH]c(=O)n1N1C(=O)C=CC1=O"
*A* > 100 µM

*Q* Another: COC1=CC(=O)c2c(cc(COP(N)(=O)N(CCCl)CCCl)n2C)C1=O (configuration not stated)
*A* 0.382 µM

*Q* Another: Cc1ccc(NC(=O)C(=O)C(C(=O)c2ccc3ccccc3c2)C2OC(=O)c3ccccc32)c(C)c1 (configuration not stated)
*A* 23.7 µM

*Q* Another: "CCC#CC[C@H](O)C/C=C1/C(=O)C=C[C@@H]1C/C=C\CCCC(=O)OC"
*A* 7.17 µM

*Q* Another: "O=c1cc(-c2ccccc2)oc2ccc(OC/C(=N/O)c3ccc(F)cc3)cc12"
*A* > 50 µM

*Q* Another: "COc1ccc(OC)c(NC(=O)c2cccc(NC3=C(Cl)C(=O)N(Cc4ccccc4)C3=O)c2)c1"
*A* > 100 µM

*Q* Another: "N#CNC(=NCc1ccccc1)NCCc1c[nH]c2ccccc12"
*A* > 100 µM

*Q* Another: "N=S(=O)(c1ccccc1)c1ccccc1"
*A* > 100 µM

*Q* Another: "O=C1CCCCC/C1=C\c1cccc([N+](=O)[O-])c1"
*A* 83.5 µM

====

# Tested on: HT29 colon
# assay_comment: NCI tumour cell line growth inhibition, 48 h
Please respond with reported TGI for every item in the list.

*Q* // returns reported TGI for input "CCCCCCCN(CCCCCCC)C(=N)c1ccnc2ccccc12"
*A* 2.87 µM

*Q* Another: C#CCN(N=O)C(=O)NCCCCC(NC(=O)OCc1ccccc1)C(=O)OCc1ccccc1 (stereo unspecified)
*A* > 100 µM

*Q* Another: "O=C1CCCCC/C1=C\c1cccc([N+](=O)[O-])c1"
*A* > 100 µM

*Q* Another: "CCOP(=O)(OCC)/C(C#N)=C\c1ccsc1"
*A* > 100 µM

*Q* Another: "CCOc1cc(C(=O)O)c2c(ccc3ccc(OC)c(OC)c32)c1OC"
*A* > 100 µM

*Q* Another: "CNC(=O)c1cc2nc3ccccc3c(=O)n2c2ccccc12"
*A* > 10 µM

*Q* Another: "Cc1cc2c(cc1C)[n+](=O)c(C(=O)/C=C/c1ccc3c(c1)OCO3)c(C)n2[O-]"
*A* > 100 µM

*Q* Another: COc1ccc(-c2nsc3c2NC(=O)CC3c2ccc3c(c2)OCCO3)cc1 (stereo unspecified)
*A* > 55.5 µM

*Q* Another: "CN(C)CCNC(=O)c1cccc2nc3ccc4cccnc4c3nc12"
*A* 4.88 µM

*Q* Another: "N/C(=N\NC(=O)c1nc2ccccc2s1)c1ccccn1"
*A* 50.7 µM

*Q* Another: "C=C1C(=O)O[C@H]2[C@H]1CC/C(COC(=O)c1cn(C)c3ccccc13)=C\CC[C@@]1(C)O[C@@H]21"
*A* 1.78 µM

*Q* Another: "COc1cc(NS(C)(=O)=O)ccc1NCc1cnc2ccc3[nH]cccc3c12"
*A* 73.9 µM

*Q* Another: "Nc1ccc2nc(Nc3ccc(Cl)c(Cl)c3)cnc2c1"
*A* 36.9 µM

*Q* Another: "CSc1c2c(C)n[nH]c2nn1-c1ccccc1"
*A* > 100 µM

*Q* Another: "COc1ccc(N2CN(C)CSC2=S)cc1"
*A* > 100 µM

*Q* Another: "COc1cc(O)c(C(=O)CC(C)=O)c(OC)c1"
*A* > 100 µM

*Q* Another: C=CC(C)(C)C1(CC(OC)OC)C(=O)N(C)c2ccccc21 (stereo unspecified)
*A* > 25 µM

*Q* Another: COC1(OC)C2(Cl)C(Cl)=C(Cl)C1(Cl)C1c3ccc(C(C)=O)c4cccc(c34)C12 (stereo unspecified)
*A* > 100 µM

*Q* Another: "Cc1cc(C)nc(NS(=O)(=O)c2ccc(Nc3c4ccccc4nc4c(C(=O)Nc5ccc(S(=O)(=O)Nc6cc(C)on6)cc5)ccc(Cl)c34)cc2)n1"
*A* 47.8 µM

*Q* Another: Cc1c(N)nc([C@H](CC(N)=O)NC[C@H](N)C(N)=O)nc1C(=O)N[C@H](C(=O)N[C@H](C)[C@@H](O)CC(=O)N[C@H](C(=O)NC(O[C@@H]1O[C@@H](C)[C@@H](N)[C@@H](O)[C@H]1O)C(O)c1nc(-c2nc(C(=O)NCCCCN)cs2)cs1)[C@@H](C)O)[C@@H](O[C@@H]1O[C@@H](CO)[C@@H](O)[C@H](O)[C@@H]1O[C@H]1O[C@H](CO)[C@@H](O)[C@H](OC(N)=O)[C@@H]1O)c1c[nH]cn1 (stereo partly specified)
*A* > 50 µM

*Q* Another: O=C1C(C(c2ccc([N+](=O)[O-])cc2)N2CCOCC2)=C(O)C(c2ccccc2)N1c1ccccc1 (stereo unspecified)
*A* > 10 µM
